Sourced from patent US9730937B2

The following molecules are listed with their measured Kd values.
Biological target: RAF kinases (Homo sapiens (Human))
Sequence (P04049 whole entry): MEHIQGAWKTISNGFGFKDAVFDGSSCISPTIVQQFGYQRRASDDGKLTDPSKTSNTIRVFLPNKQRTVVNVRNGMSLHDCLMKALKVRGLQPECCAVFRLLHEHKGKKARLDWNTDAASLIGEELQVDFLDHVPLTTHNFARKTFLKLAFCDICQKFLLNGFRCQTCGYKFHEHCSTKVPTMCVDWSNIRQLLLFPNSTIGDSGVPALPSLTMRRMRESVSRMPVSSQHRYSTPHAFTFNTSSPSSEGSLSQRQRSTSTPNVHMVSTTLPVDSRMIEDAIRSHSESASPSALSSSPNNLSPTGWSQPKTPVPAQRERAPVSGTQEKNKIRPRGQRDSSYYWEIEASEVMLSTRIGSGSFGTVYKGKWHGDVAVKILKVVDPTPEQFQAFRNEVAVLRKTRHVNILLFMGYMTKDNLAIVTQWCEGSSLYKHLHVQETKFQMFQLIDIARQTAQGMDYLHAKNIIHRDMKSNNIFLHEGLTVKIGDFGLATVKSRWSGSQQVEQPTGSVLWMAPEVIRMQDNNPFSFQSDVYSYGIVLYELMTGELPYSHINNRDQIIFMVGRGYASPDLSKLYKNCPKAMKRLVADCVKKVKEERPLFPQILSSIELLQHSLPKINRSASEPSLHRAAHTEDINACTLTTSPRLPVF

Mol Smiles | Kd
COCCOc1cc(NC(=O)Nc2cccc(Sc3ncnc4cc(OC)c(OC)cc34)c2)ccc1C(F)(F)F | > 1000 nM
COc1cc2ncnc(Oc3cccc(NC(=O)Nc4cc(C(C)(C)F)on4)c3)c2cc1OC | < 250 nM
COCCOc1cc(NC(=O)Nc2cccc(Sc3ncnc4cc(OC)c(OC)cc34)c2)cc(C(F)(F)F)c1 | > 1000 nM
COc1cc2c(Oc3cccc(NC(=O)Nc4cc(C(C)(C)C)on4)c3)ncnc2cc1O[C@H]1CCN(CC(F)F)C1 | > 1000 nM
COc1cc2ncnc(Sc3cccc(NC(=O)Nc4cc(C(F)(F)F)nn4-c4ccc(F)cc4)c3)c2cc1OC | > 1000 nM
COc1cc2ncnc(Sc3cccc(NC(=O)Nc4cc(C(F)(F)F)nn4-c4ccccc4)c3)c2cc1OC | > 1000 nM
COc1cc2ncnc(Oc3cccc(NC(=O)Nc4cc(C(F)(F)F)nn4-c4ccc(F)cc4)c3)c2cc1OC | > 1000 nM
COc1cc2ncnc(Oc3cccc(NC(=O)Nc4cccc(C(C)C)c4)c3)c2cc1OC | < 250 nM

###

Molecular target: UniProt P15056
Test: biochemical

Mol Smiles | Kd
COc1cc2ncnc(Oc3cccc(NC(=O)Nc4cc(C(C)(C)C)on4)c3)c2cc1O[C@H]1CCN(C)C1 | 250 to 500 nM

###

Target: wild type BRAF kinase (Homo sapiens (Human))
Sequence (P15056 whole entry): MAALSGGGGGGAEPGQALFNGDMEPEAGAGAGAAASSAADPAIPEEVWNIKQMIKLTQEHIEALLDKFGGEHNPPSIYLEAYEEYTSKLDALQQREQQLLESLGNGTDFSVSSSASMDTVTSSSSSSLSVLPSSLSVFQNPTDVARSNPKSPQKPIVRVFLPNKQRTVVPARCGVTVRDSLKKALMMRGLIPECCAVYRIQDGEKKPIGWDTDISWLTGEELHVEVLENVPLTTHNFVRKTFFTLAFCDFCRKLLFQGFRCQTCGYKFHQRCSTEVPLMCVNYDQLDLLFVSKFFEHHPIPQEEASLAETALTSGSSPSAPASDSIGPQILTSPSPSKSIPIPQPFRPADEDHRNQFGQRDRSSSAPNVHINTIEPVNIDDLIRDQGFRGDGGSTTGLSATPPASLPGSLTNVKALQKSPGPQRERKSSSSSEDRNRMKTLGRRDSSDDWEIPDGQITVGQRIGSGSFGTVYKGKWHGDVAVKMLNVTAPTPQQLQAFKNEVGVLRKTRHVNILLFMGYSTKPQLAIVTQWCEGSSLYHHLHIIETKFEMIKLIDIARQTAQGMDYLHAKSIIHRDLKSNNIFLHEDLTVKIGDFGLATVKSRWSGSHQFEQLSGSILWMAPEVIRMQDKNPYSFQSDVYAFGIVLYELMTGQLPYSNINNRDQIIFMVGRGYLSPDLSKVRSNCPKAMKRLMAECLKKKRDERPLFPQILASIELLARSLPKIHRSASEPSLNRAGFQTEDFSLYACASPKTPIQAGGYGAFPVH
Settings: read-out: BRAF WT Kd, class symbols
The following compounds are listed with their measured Kd values.
Observable: Kd

Mol Smiles | Result
COc1cc2ncnc(Sc3cccc(NC(=O)Nc4cc(C(C)(C)C)on4)c3)c2cc1OCCCS(C)(=O)=O | < 250 nM
COc1cc2ncnc(Oc3cccc(NC(=O)Nc4cc(C5CCCC5)no4)c3)c2cc1OC | > 1000 nM
COc1cc2ncnc(Oc3cccc(NC(=O)Nc4cc(C(C)(C)C)on4)c3)c2cc1OCCCN1CCOCC1 | < 250 nM
COc1cc2ncnc(Oc3cccc(NC(=O)Nc4cc(C5(C)CC5)on4)c3)c2cc1OC | < 250 nM

###

Target: wild type BRAF kinase (Homo sapiens (Human))
Conditions: read-out: BRAF WT Kd, class symbols
Structures can show the parent of a compound that is named as a salt.
Observable: Kd

Molecule | Result
COc1cc2c(Oc3cccc(NC(=O)Nc4cc(C(C)(C)C)on4)c3)ncnc2cc1OC1CCN(CC(F)F)CC1 [Ex 105] | > 1000 nM
COc1cc2c(Oc3cccc(NC(=O)Nc4cc(C(C)(C)C)on4)c3)ncnc2cc1OC[C@H](O)CN1CCN(C)CC1 [Ex 100] | < 250 nM
COc1cc2ncnc(Oc3cccc(NC(=O)Nc4cc(C(C)(C)F)on4)c3)c2cc1OC [Ex 136] | < 250 nM
COCCOc1cc(NC(=O)Nc2cccc(Sc3ncnc4cc(OC)c(OC)cc34)c2)ccc1C(F)(F)F [Ex 148] | > 1000 nM
COc1cc2ncnc(Oc3cccc(NC(=O)Nc4cc(C(F)(F)F)nn4-c4ccc(F)cc4)c3)c2cc1OC [Ex 171] | > 1000 nM
COc1cc2ncnc(Oc3cccc(NC(=O)Nc4cc(C5CC5)no4)c3)c2cc1OC [Ex 124] | < 250 nM
COc1cc2c(Sc3cccc(NC(=O)Nc4cc(C(C)(C)C)on4)c3)ncnc2cc1OCCN1CCC(CO)CC1 [Ex 86] | > 1000 nM
COCCOc1cc2ncnc(Oc3cccc(NC(=O)Nc4ccc(OC)c(C(F)(F)F)c4)c3)c2cc1OC [Ex 139] | < 250 nM
COc1cc2ncnc(Oc3cccc(NC(=O)Nc4cc(C(F)(F)F)ccc4Cl)c3)c2cc1OC [Ex 142] | > 1000 nM
COc1cc2ncnc(Oc3cccc(NC(=O)Nc4cc(C(F)(F)F)nn4-c4ccc(C)cc4)c3)c2cc1OC [Ex 172] | > 1000 nM
CCOC(C)(C)c1cc(NC(=O)Nc2cccc(Oc3ncnc4cc(OC)c(OC)cc34)c2)n(-c2ccccc2)n1 [Ex 168] | > 1000 nM
COc1cc2ncnc(Sc3cccc(NC(=O)Nc4cc(C(C)(C)C)nn4-c4ccccc4)c3)c2cc1OC [Ex 154] | > 1000 nM
COc1cc2ncnc(Oc3cccc(NC(=O)Nc4cc(C(C)(C)C)on4)c3)c2cc1OC [Ex 1] | > 1000 nM
COc1cc2ncnc(Oc3cc(NC(=O)Nc4cc(C(C)(C)C)on4)ccc3F)c2cc1OC [Ex 9] | > 1000 nM
COc1cc(OC2CCOCC2)c2c(Oc3cccc(NC(=O)Nc4cc(C(C)(C)C)on4)c3)ncnc2c1 [Ex 94] | > 1000 nM
COCCOc1cc(NC(=O)Nc2cccc(Oc3ncnc4cc(OC)c(OC)cc34)c2)ccc1C(F)(F)F [Ex 147] | > 1000 nM
COc1cc2ncnc(Oc3cccc(NC(=O)Nc4nccc(C(F)(F)F)n4)c3)c2cc1OC [Ex 143] | > 1000 nM
CC(C)(C)c1cc(NC(=O)Nc2cccc(Sc3ncnc4cc5c(cc34)OCCO5)c2)no1 [Ex 54, hydrochloride] | > 1000 nM
COc1cc2ncnc(Sc3cccc(NC(=O)Nc4cc(C(C)C)on4)c3)c2cc1OC [Ex 134] | < 250 nM
COCCOc1ccc2ncnc(Oc3cccc(NC(=O)Nc4cc(C(C)(C)C)on4)c3)c2c1 [Ex 40] | > 1000 nM
COc1cc2c(Oc3cccc(NC(=O)Nc4cc(C(C)(C)C)on4)c3)ncnc2cc1OCCCN1CCN(CCO)CC1 [Ex 30] | < 250 nM
COc1cc2ncnc(Oc3cccc(NC(=O)Nc4cccc(C(F)(F)F)c4)c3)c2cc1OC [Ex 181] | < 250 nM
CCOc1cc2ncnc(Oc3cccc(NC(=O)Nc4cc(C(C)(C)C)on4)c3)c2cc1OCC [Ex 13, hydrochloride] | > 1000 nM
COc1cc2ncnc(Sc3cccc(NC(=O)Nc4ccc(C(F)(F)F)c(OC)c4)c3)c2cc1OC [Ex 190] | > 1000 nM
COc1cc2ncnc(Oc3cccc(NC(=O)Nc4cc(C(F)(F)F)nn4C)c3)c2cc1OC [Ex 164] | < 250 nM
COc1cc2ncnc(Oc3cccc(NC(=O)Nc4cc(C5CCOCC5)no4)c3)c2cc1OC [Ex 123] | > 1000 nM
COc1cc2ncnc(Sc3cccc(NC(=O)Nc4cc(C(F)(F)F)nn4-c4ccc(F)cc4)c3)c2cc1OC [Ex 198] | > 1000 nM
COc1cc2c(Oc3cccc(NC(=O)Nc4cc(C(C)(C)C)on4)c3)ncnc2cc1O[C@H]1CCN(CC(F)(F)F)C1 [Ex 104] | > 1000 nM
COc1cc2ncnc(Oc3cccc(NC(=O)Nc4cc(C(C)(C)C)nn4-c4ccccc4)c3)c2cc1OC [Ex 153] | > 1000 nM
COc1cc2ncnc(Sc3cccc(NC(=O)Nc4ccc(C(F)(F)F)c(F)c4)c3)c2cc1OC [Ex 188] | > 1000 nM
COc1cc2ncnc(Sc3cccc(NC(=O)Nc4cc(C(C)(C)C)on4)c3)c2cc1OCCN1CCS(=O)(=O)CC1 [Ex 71] | < 250 nM
COc1cc2ncnc(Sc3cccc(NC(=O)Nc4cc(C(F)(F)F)nn4C)c3)c2cc1OC [Ex 193] | < 250 nM

###

Where a name gives a salt, the structure may show the parent alone.
Recorded below: Kd, system RAF kinases (Homo sapiens (Human), UniProt P04049).

Molecule | Kd
COc1cc2ncnc(Oc3cccc(NC(=O)Nc4cc(C(C)C)no4)c3)c2cc1OC | < 250 nM
COc1cc2c(Oc3cccc(NC(=O)Nc4cc(C(C)(C)C)on4)c3)ncnc2cc1O[C@@H]1CCNC1 [Ex 98, dihydrochloride] | < 250 nM
COc1cc2ncnc(Oc3cccc(NC(=O)Nc4cc(C(F)(F)F)nn4-c4ccccc4)c3)c2cc1OC | > 1000 nM
COc1cc2ncnc(Sc3cccc(NC(=O)Nc4cc(C(C)C)on4)c3)c2cc1OC | < 250 nM
COc1cc2c(Sc3cccc(NC(=O)Nc4cc(C(C)(C)C)on4)c3)ncnc2cc1OCCCN1CCC(CO)CC1 | < 250 nM
COc1cc2ncnc(Oc3cccc(NC(=O)Nc4cc(C(=O)N5CCOCC5)cc(C(F)(F)F)c4)c3)c2cc1OC | > 1000 nM
CCOC(C)(C)c1cc(NC(=O)Nc2cccc(Oc3ncnc4cc(OC)c(OC)cc34)c2)n(-c2ccccc2)n1 | > 1000 nM
COc1cc2ncnc(Oc3cccc(NC(=O)Nc4cc(C(C)(C)C)on4)c3)c2cc1OCCCN1CCS(=O)(=O)CC1 | < 250 nM

###

System: panel of 290 distinct kinases (321 in the larger panel), excluding mutant variants
Conditions: kinase selectivity score, value marked * (larger kinase panel); class symbols

Mol Smiles | S35
COc1cccc(NC(=O)Nc2cccc(Oc3ncnc4cc(OC)c(OC)cc34)c2)c1 | B* (0.10 < B ≦ 0.20)
COCC(C)(C)c1cc(NC(=O)Nc2cccc(Oc3ncnc4cc(OC)c(OC)cc34)c2)on1 | C* (0.20 < C ≦ 0.40)
COc1cc2ncnc(Oc3cccc(NC(=O)Nc4ccc(C(F)(F)F)c(F)c4)c3)c2cc1OC | C* (0.20 < C ≦ 0.40)
CCOC(C)(C)c1cc(NC(=O)Nc2cccc(Oc3ncnc4cc(OC)c(OC)cc34)c2)n(-c2ccccc2)n1 | C* (0.20 < C ≦ 0.40)
COc1cc2ncnc(Oc3cccc(NC(=O)Nc4cc(C(C)(CF)CF)no4)c3)c2cc1OC | D* (D > 0.40)
COc1cc2ncnc(Oc3cccc(NC(=O)Nc4cccc(C(F)(F)F)c4)c3)c2cc1OC | C* (0.20 < C ≦ 0.40)
COc1cc2ncnc(Sc3cccc(NC(=O)Nc4cc(C(C)(C)C)nn4-c4ccccc4)c3)c2cc1OC | D* (D > 0.40)
COc1cc2ncnc(Oc3cccc(NC(=O)Nc4cc(C(C)(C)C)nn4C)c3)c2cc1OC | C* (0.20 < C ≦ 0.40)
COCCOc1cc(NC(=O)Nc2cccc(Oc3ncnc4cc(OC)c(OC)cc34)c2)ccc1C(F)(F)F | B* (0.10 < B ≦ 0.20)
COc1cc2ncnc(Sc3cccc(NC(=O)Nc4ccc(Cl)c(C(F)(F)F)c4)c3)c2cc1OC | B* (0.10 < B ≦ 0.20)
COc1cc2ncnc(Oc3cccc(NC(=O)Nc4cc(C(C)(C)F)no4)c3)c2cc1OCCCS(C)(=O)=O | C* (0.20 < C ≦ 0.40)
